Experiment: TOR pathway GLN3 branch reporter MEP2-GFP changes – S. cerevisiae, multiplex flow cytometry, primary screen (AID 1867);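 also: median GFP channel fluorescence of barcode-gated MEP2-GFP cells measured by flow cytometry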
Conditions: S. cerevisiae MEP2-GFP strain, 3 h, at 10 µM, 100% means same as DMSO wells
Inconclusive results are not listed. Calls of active or inactive are those of the source.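 The calls were made as follows: active = GFP response, as percent of the DMSO control, above the screen-wide mean plus 3 SD, about 139; inconclusive = no response measured because the compound's own fluorescence interfered; inactive = the rest.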
The reply should name one outcome from active, inactive

- Compound: "CC1(C)c2ccccc2N2CC(=O)NC21/C=C/c1ccco1 (stereo unspecified)"
  Label: "inactive"

input: Called result for "CSc1ccc(/C=N/N2CCN(Cc3ccc(C)cc3C)CC2)cc1"
output: inactive

input: Input "COc1cc(CNc2ccc(C)c(C)c2)cc(OC)c1OC"
output: inactive

input: One more compound: "CC(=O)[C@H]1[C@H](C#N)C[C@H]2[C@@H]3CC=C4C[C@@H](O)CC[C@]4(C)[C@H]3CC[C@@]21C"
output: inactive

input: "Cc1nc2c(c3c1[nH]c1ccccc13)C(=O)CC(C)(C)C2" ?
output: inactive

input: Then "Cc1ccc(N2CCN(C(=S)c3ccc(-c4cccc([N+](=O)[O-])c4)o3)CC2)cc1" ?
output: inactive

input: Could you do the same for "COc1ccc2cc(C(=O)Nc3ccc(S(N)(=O)=O)cc3)sc(=O)c2c1OC" , please?
output: inactive

input: Now this one: CCOc1ccc(C(NC(C)=O)c2ccc(OC)c(OC)c2)cc1 (stereo unspecified)
output: inactive

input: For "CN/C(=C/[N+](=O)[O-])NCCSCc1ccc(CN(C)C)o1" then?
output: active

input: Then this compound: "C[C@H]([C@@H](N)C(=O)N[C@@H](C(=O)O)[C@@H]1O[C@H](n2ccc(=O)[nH]c2=O)[C@@H](O)[C@H]1O)[C@@H](O)c1ccc(O)cn1"
output: inactive

input: What do you have for "c1ccc(CC2=NCCN2)cc1" ?
output: inactive

input: Ok, now "N=c1nc(N2CCCCC2)cc(N)n1O"
output: active

input: Field entry: "NCc1ccccc1COc1ccccc1"
output: inactive

input: Would you mind doing "CCOC(=O)c1c(C)oc2c1C(=O)c1ccccc1C2=O" as well?
output: inactive

input: Then what about the compound "Cc1oncc1C(=O)Nc1ccc(C(F)(F)F)cc1" ?
output: inactive

input: Cool, now CCOC(=O)C1=C(C)NC(C)=C(C(=O)OC)C1c1cccc([N+](=O)[O-])c1 (stereo unspecified)
output: inactive
